Data credit: patent US10858316B2

Each item that follows carries a reported pKi.
- system tested: Mcl-1 (Homo sapiens (Human), UniProt Q07820)
- Sequence (Q07820 172-327): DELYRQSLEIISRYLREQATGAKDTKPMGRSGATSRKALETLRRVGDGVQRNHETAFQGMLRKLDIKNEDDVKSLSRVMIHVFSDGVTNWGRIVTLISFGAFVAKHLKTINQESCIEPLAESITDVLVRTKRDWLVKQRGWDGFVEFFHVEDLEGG
- assay: Fluorescence polarization competition assay (FPCA), Mcl-1 / FITC-Bak BH3 peptide
- Format: binding
- conditions used: FPC assay; read-out: Mcl-1 Ki
pKi: −log10 of the molar value.

| compound | system tested | pKi |
| --- | --- | --- |
| O=C(O)C1CNc2ccccc2C1 (racemic) | Mcl-1 (Homo sapiens (Human), UniProt Q07820) | < 3.30 |
| CC(=O)OCOC(=O)C1Cc2ccccc2N(S(=O)(=O)c2ccc(Oc3cc(C)c(Cl)c(C)c3)cc2)C1 (racemic) | Mcl-1 (Homo sapiens (Human), UniProt Q07820) | < 3.30 |
| O=C(O)C1Cc2ccccc2N(S(=O)(=O)c2ccc(-c3ccccc3)cc2)C1 (racemic) | Mcl-1 (Homo sapiens (Human), UniProt Q07820) | < 3.30 |

###

Each item that follows carries a reported Mcl-1 Exp ΔG.
- system tested: Mcl-1 (Homo sapiens (Human), UniProt Q07820)
- assay: Fluorescence polarization competition assay (FPCA), Mcl-1 / FITC-Bak BH3 peptide
- Type: binding
- conditions used: ΔG=−RTlnKi from experimental Ki

| chemical string | unit tag | qualifying sign | Mcl-1 Exp ΔG |
| --- | --- | --- | --- |
| Cc1cc(Oc2ccc(N(Cc3ccccc3)S(=O)(=O)c3cc(C(=O)O)c(O)c4ccccc34)cc2)cc(C)c1Cl | kJ/mol | = | -42.84 |
| Cc1ccc(NS(=O)(=O)c2cc(C(=O)O)c(O)c3ccccc23)cc1 | kJ/mol | = | -25.5 |
| O=C(O)c1cc(S(=O)(=O)Nc2ccc(Oc3cccc4ccccc34)cc2)c2ccccc2c1O | kJ/mol | = | -40.4 |
| O=C(O)c1cc(S(=O)(=O)Nc2ccccc2Br)c2ccccc2c1O | kJ/mol | = | -29.5 |
| CC(C)CN(c1ccc(Br)cc1)S(=O)(=O)c1cc(C(=O)O)c(O)c2ccccc12 | kJ/mol | = | -35.6 |
| CN(C)S(=O)(=O)c1cc(C(=O)O)c(O)c2ccccc12 | kJ/mol | = | -26.2 |
| O=C(O)c1cc(S(=O)(=O)Nc2ccc(Br)cc2)c2ccccc2c1O | kJ/mol | = | -31.7 |
| COC(=O)c1cc(S(=O)(=O)N(CC(C)C)c2ccc(Br)cc2)c2ccccc2c1O | kJ/mol | > | -18.8 |
| O=C(O)c1cc(S(=O)(=O)Nc2ccc(-c3ccccc3)cc2)c2ccccc2c1O | kJ/mol | = | -33.2 |
| O=C(O)c1cc(S(=O)(=O)Nc2ccccc2-c2ccccc2)c2ccccc2c1O | kJ/mol | = | -28.9 |
| N#Cc1ccc(NS(=O)(=O)c2cc(C(=O)O)c(O)c3ccccc23)cc1 | kJ/mol | = | -26.6 |
| O=C(O)c1cc(S(=O)(=O)Nc2cccc(-c3ccccc3)c2)c2ccccc2c1O | kJ/mol | = | -32.7 |
| O=C(O)c1cc(S(=O)(=O)N2CCN(c3ccccc3)CC2)c2ccccc2c1O | kJ/mol | = | -30.5 |

###

- system tested: Bcl-xL (Homo sapiens (Human), UniProt Q07817)
- Sequence (Q07817 whole entry): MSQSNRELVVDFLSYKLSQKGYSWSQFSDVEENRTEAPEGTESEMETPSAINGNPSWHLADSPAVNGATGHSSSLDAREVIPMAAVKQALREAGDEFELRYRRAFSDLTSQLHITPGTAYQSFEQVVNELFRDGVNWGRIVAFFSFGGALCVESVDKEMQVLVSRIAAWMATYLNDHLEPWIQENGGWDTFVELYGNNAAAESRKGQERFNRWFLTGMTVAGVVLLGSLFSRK
- assay: Fluorescence polarization competition assay, Bcl-xL
- Format: binding
- conditions used: Ki from IC50 by Nikolovska-Coleska equation; NA = no activity; read-out: Bcl-xL Ki
pKi: −log10 of the molar value.
Label y for high-side pKi (at or above 6) and n for low-side pKi (below it).

| compound | assigned class |
| --- | --- |
| Cc1cc(CCCN(Cc2ccccc2)c2ccc(C(=O)O)c(O)c2)cc(C)c1Cl | n |
| Cc1cc(Oc2ccc(N(Cc3ccccc3)S(=O)(=O)c3cc(C(=O)O)c(O)c4ccccc34)cc2)cc(C)c1Cl | y |
| CC(C)CN(c1ccc(C(=O)O)c(O)c1)S(=O)(=O)c1ccc2ccccc2c1 [4jc117-3 13ab] | n |
| CC(C)CN(c1ccc(C(=O)O)c(O)c1)S(=O)(=O)c1ccccc1 [4jc117-1 13aa] | n |
| O=C(O)c1cc(S(=O)(=O)Nc2ccc(Oc3cccc4ccccc34)cc2)c2ccccc2c1O | y |
